The reported numbers originate from the supplement of paper PMC11451515.

Attribute: cell viability
- Tested on: P12-Ichikawa
- test_summary: cell viability relative to DMSO control; higher = less cytotoxic
- assay_context: HPLM + 10% dialyzed FBS; 48 h; 0.00234 µM
Supply the numeric figure in %, leaving out any unit text.

Illustrative cases are given below, each with its answer.
N[S+](=O)([O-])c1cc2c(cc1Cl)NC(C(Cl)Cl)N[S+]2(=O)[O-] (centres undefined) ... 109
O=S(=O)([O-])CCS.[Na+] ... 122
CCN1C[C@H](C)[N]2C(=C(O)C3=C2\C(=N/N(CC4=CC=C(F)C(=C4)Cl)C3=O)C(=O)NC)C1=O ... 116

Look up and report measured cell viability for this entry: `Cc1nc2cc(C(=O)N3CCC4(CC3)CC(=O)c3c(cnn3C(C)C)C4)ccc2[nH]1` 121

State, in one line, measured cell viability of `O=[N+]([O-])c1ncc[nH]1` 88

Provide measured cell viability value, entry: `CC(C)=CCC/C(C)=C/CC/C(C)=C/CC/C(C)=C/CC/C(C)=C/CC/C(C)=C/CC/C(C)=C/CC/C(C)=C/CC/C(C)=C/CO` 109

Answer with the recorded cell viability of `Cc1ccc([N+](=O)[O-])cc1[S+](=O)([O-])N(C)/N=C/c1cnc2ccc(Br)cn12` only. 110

Give the value of cell viability reported for the following: `O=C(CCc1ccc(O)cc1)c1c(O)cc(O)cc1O` 106

Answer with the recorded cell viability of `O=C1\C=C/C=C2/[C@H]3CNC[C@H](C3)CN12` only. 109

* * *

Below, each entry is listed alongside its reported cell viability.
- Test system: SEM cells
- test_summary: cell viability relative to DMSO control; higher = less cytotoxic
- assay_context: RPMI 5 mM glucose + 10% dialyzed FBS; 48 h; 1.71 µM
# output: bare number, implied unit %

Consider the reported cell viability for these compounds:
O=C(Nc1c[nH]nc1-c1nc2cc(CN3CCOCC3)ccc2[nH]1)NC1CC1 ... 11.7
C[C@@H]1CCN(C(=O)CC#N)C[C@@H]1N(C)c1ncnc2[nH]ccc12 ... 94
C[C@H]1C[C@H]2[C@@H]3CC[C@](O)(C(=O)CO)[C@@]3(C)C[C@H](O)[C@@H]2[C@@]\4(C)/C=C\C(=O)\C=C14 ... 40.9
O=C(Nc1nnc(-c2ccco2)o1)c1cc(-c2ccccc2)nc2ccccc12 ... 95.3
Cc1cn[nH]c1 ... 123

Identify cell viability associated with the compound `Cc1cc(OCCC[S+](C)(=O)[O-])cc(C)c1-c1cccc(COc2ccc3c(c2)OC[C@H]3CC(=O)O)c1` 105

Return the recorded cell viability value; entry: `O=S(=O)([O-])CCS.[Na+]` 135

Give me measured cell viability, please, for this compound: `c1ccc2c(Cc3c[nH]c4ccccc34)c[nH]c2c1` 74.7

Report measured cell viability; entry is `CCN(CCO)CCCOc1ccc2c(Nc3cc(CC(=O)Nc4cccc(F)c4)[nH]n3)ncnc2c1` 22.2

* * *

- System: NOMO1
- test_summary: cell viability relative to DMSO control; higher = less cytotoxic
- assay_context: RPMI 5 mM glucose + 10% FBS; 48 h; 0.00234 µM
Output MET for records whose cell viability is lower than 90%, NOT MET for records at or above 90%.

Worked cases, answers included:
C=C1C(=O)[C@@]23C(CC[C@@H]1[C@H]2O)[C@@]12CO[C@]3(O)[C@@H](O)[C@@H]1C(C)(C)CC[C@@H]2O (some centres not stated) ... NOT MET
C[C@@H]1CCN(C(=O)CC#N)C[C@@H]1N(C)c1ncnc2[nH]ccc12 ... MET
C[C@H]1C[C@H]2[C@@H]3CC[C@](O)(C(=O)CO)[C@@]3(C)C[C@H](O)[C@@H]2[C@@]\4(C)/C=C\C(=O)\C=C14 ... NOT MET
Cc1c(-c2cccc3c(CCCOc4cccc5ccccc45)c(C(=O)O)n(Cc4cccnc4)c23)c(COc2ccc(N3CCN([S+](=O)([O-])N(C)C)CC3)cc2)nn1C ... NOT MET
N#C/C(=C\c1ccc(O)c(O)c1)C(=O)NCc1ccccc1 ... NOT MET

Regarding `CC[C@]12CC[C@H]3[C@@H](CCC/4=C/C(=O)CC[C@H]34)[C@@H]1CC[C@@]2(O)C#C` , kindly confirm whether its cell viability is beneath 90%. MET

I'd appreciate it if you could check whether `COC(=O)Nc1nc2cc(C(=O)c3ccc(F)cc3)ccc2[nH]1` has cell viability smaller than 90%. NOT MET

Please let me know if `CC[N+](CC)(CC)CCOc1cccc(OCC[N+](CC)(CC)CC)c1OCC[N+](CC)(CC)CC` shows cell viability below 90%. NOT MET

hey, is cell viability for `O=C([O-])C[C@H](O)C[C@H](O)/C=C/c1c(C2CC2)nc2ccccc2c1-c1ccc(F)cc1` lower than 90% or not? NOT MET

Please let me know if `CCN(CCO)CCCOc1ccc2c(Nc3cc(CC(=O)Nc4cccc(F)c4)[nH]n3)ncnc2c1` shows cell viability below 90%. NOT MET

Just wondering, is cell viability of `C[N]1C=C(C2=CC=CC=C12)\C3=C(\C(=O)NC3=O)C4=C[N](C5CCN(CC5)CC6=NC=CC=C6)C7=C4C=CC=C7` below 90%? NOT MET
